// provenance: PubChem BioAssay (NCI)

# System: LOX IMVI melanoma
# Test summary: NCI-60 one-dose screen, 48 h
# Measurement conditions: 10 µM unless noted
Compounds without any hit were thinned out: in the full panel of roughly 83,000, 20% have a hit. The source made the active and inactive calls. Rule for the calls: active = growth percent below 10; inactive = the rest.
Classes used: active, inactive

CCc1cccc(Cl)c1 = inactive
CC(=O)OC[C@]12CC[C@@H]([C@@H](C)C(N)=O)[C@@H]1[C@H]1CC[C@@H]3[C@@]4(C)CC[C@H](OC(C)=O)C(C)(C)[C@@H]4CC[C@@]3(C)[C@]1(C)CC2 = active
O=C1C(Cl)=C(Nc2ccc3cn[nH]c3c2)C(=O)c2ccccc21 = active
CC1=CCc2ccccc21 = inactive
CC(C)(C)c1cc(C(=O)Nc2cc3ccccc3cc2C(=O)NCCN)cc(C(C)(C)C)c1 = active
CC1Cc2c(Cl)ncnc2N(C)c2ccc(Cl)cc21 (stereo unspecified) = active

---

# Test system: SF-295 CNS
# Test summary: NCI-60 one-dose screen, 48 h
# Measurement conditions: 10 µM unless noted
# Experimental: Cells are grown in 96 well plates and exposed to the test compound for 48 hours. Compounds are tested at a single concentration, which is 10^-5 M for most compounds. The reported endpoint is percent growth (GI% or GIPRCNT), where numbers from 0 - 100% represent growth inhibition, and numbers from -100% - 0 represent cell death. For example, a value of 40 represents 60% growth inhibition. A value of 0 means no net growth occurred over the course of the experiment. […]
Compounds without any hit were thinned out: in the full panel of roughly 83,000, 20% have a hit. Activity calls are given as the source filed them. Rule for the calls: active = growth percent below 10; inactive = the rest.
Classes used: active, inactive

Fc1cc2[nH]ncc2c2c3c(c(-c4cn[nH]c4)nc12)CCCC3 = active
Cn1cc(-c2noc(C(=O)c3cn(C)c4ncccc34)n2)c2ccccc21 = inactive
CN(C)c1ccc(N=Nc2ccc3ccccc3c2)cc1 = inactive
CC1(C)[C@@H](NOCCCN)CC[C@]2(C)[C@H]3C(=O)C=C4[C@@H]5C[C@](C)(C(=O)O)CC[C@]5(C)CC[C@@]4(C)[C@]3(C)CC[C@@H]12 = active
CCOC(=O)COc1c(C)cc(SSc2cc(C)c(OCC(=O)OCC)c(C)c2)cc1C = inactive
COc1cc2c(c(OC)c1OC)-c1cc(I)c(O)cc1[C@@H](NC(C)=O)CC2 = inactive
COc1ccc(/C=C/C=C\C(=O)c2ccc(-n3ccnc3)cc2)cc1 = inactive

---

# System: HT29 colon
# Test summary: NCI-60 one-dose screen, 48 h
# Measurement conditions: 10 µM unless noted
About 83,000 compounds went through this panel and 20% of them were active in at least one assay; those are over-represented in the sample as a whole. Activity calls are given as the source filed them. How the source made its calls: active means growth percent below 10; inactive means the rest.
Classes used: class 1 = active, class 0 = inactive

CC1(C)NCCC[C@]2(C)[C@H]3C=CC4=C5C[C@](C)(CO)CC[C@]5(C)CC[C@@]4(C)[C@]3(C)CC[C@@H]12 = class 1
COCCCNc1nc(NC(=O)c2cc(Br)cc(C(F)(F)F)c2)cc(-c2cccnc2)n1 = class 0
c1ccc(-c2nc(N3CCCNCC3)c3nc(-c4ccccc4)oc3n2)cc1 = class 1
CCCn1ccnc1C(O)c1ccc(OCc2ccccc2)c(OC)c1 (stereo not given) = class 0
CC1(C)CC[C@]2(C(N)=O)CC[C@]3(C)C(=CC[C@@H]4[C@@]5(C)C/C(=C/c6ccncc6)C(=O)C(C)(C)[C@@H]5CC[C@]43C)[C@@H]2C1 = class 1
CCOc1cc(NC(=O)c2ccccc2)c(OCC)cc1N = class 0
CC(C)[C@H]1CCC2=C3CC[C@]45OC(=O)[C@@]6(CCC(C)(C)C[C@H]64)CC[C@@]5(C)[C@]3(C)CC[C@@]21C = class 0
CCCCOC(=O)c1cccc([N+](=O)[O-])c1 = class 0
Cc1cccc([N+](=O)[O-])c1I = class 0
Cc1nc(-c2ccccc2)sc1CC#N = class 0
c1ccc(-c2nnc(-c3c[nH]c4ncccc34)s2)cc1 = class 0
O=S(=O)(NCCNc1nccc(-c2c(-c3cccc(F)c3)nc3occn23)n1)c1ccc(C(F)(F)F)cc1 = class 0
O=C1CN(Cc2ccc(C(=O)NO)cc2)C(=O)[C@@H](Cc2ccccc2)N1 = class 0
O=C(NCCCCCCCNC(=O)OCc1ccc2c(Cl)cc(Cl)c(O)c2n1)OCc1ccc2c(Cl)cc(Cl)c(O)c2n1 = class 1
COc1c(C(C)=O)c(OCCCCOc2c(C(C)=O)c(OC)c3ccoc3c2OC)c(OC)c2occc12 = class 0
